- Test system: DMS-273
- EXPERIMENTAL_PROTOCOL: NCI tumour cell line growth inhibition, 48 h
Activity calls are given as the source filed them. Cut-off read from the data, not from the text of the source: active = GI50 up to about 1.1 µM and inactive = higher.
Parameter call: string, one of active, inactive

Worked examples follow.
> print(dat)
                                   molecule  target.or.test.system  class.assignment
1  CCOC(=O)Nc1ccc(S(=O)(=O)OC)cc1.CCOC(=O)Nc1ccc(S(=O)(=O)OC)cc1.Nc1ncnc2c1ncn2C1OC(CO)C(O)C1O (stereo not drawn)                DMS-273          inactive
2  C[C@@H](NC1CCC[C@@H]1O)c1ccccc1 (stereo partly drawn)                DMS-273          inactive
3  Cc1cn(C2CC(N(O)Cc3ccccc3)C(CO)O2)c(=O)[nH]c1=O (stereo not drawn)                DMS-273          inactive
4  C/C(=N/NC(=O)CC(=O)N(C(=O)c1ccccc1Cl)c1ccc(C)cc1)c1cc2ccccc2oc1=O                DMS-273          inactive
5     COc1cc(OC)c(OC)cc1/C=C\c1ccnc2ccccc12                DMS-273            active

[ask] Short answer needed: outcome of this test for COc1ccccc1CC(C)N (stereo not drawn) ?
[reply] inactive

[ask] Cool, now CN1CN(C2OC(CO)C(O)C2O)c2nc(N)[nH]c(=O)c21 (stereo not drawn)
[reply] inactive

[ask] Cool, now COc1ccc2c(c1)CCCN2CCCCCCCCCCN(CCC(C)C)CCC(C)C
[reply] inactive

[ask] Cool, now O=C(CC1=Nc2nnc(CCCCCCCc3nnc4n3C(=O)C(CC(=O)c3ccc5ccccc5c3)=N4)n2C1=O)c1ccc2ccccc2c1
[reply] inactive

[ask] Cool, now CC(=O)O/C=C(/C=C/OC(C)=O)C(C/C=C(\C)C#CC=C(C)C)OC(C)=O (stereo not drawn)
[reply] inactive

[ask] Cool, now O=C1OC(c2cccc(C(F)(F)F)c2)(c2cccc(C(F)(F)F)c2)c2ccc3ccccc3c21
[reply] inactive

[ask] Cool, now Cc1ccccc1-n1c2nc(=O)n(C)c(=O)c-2nc2ccccc21
[reply] inactive

[ask] Cool, now C/C(CCn1[nH]c(=O)ccc1=O)=N\O
[reply] inactive

[ask] Cool, now C[C@]12CC/C(=N\O)C=C1CC[C@@H]1C2CC[C@@]2(C)C1CC[C@@H]2OC1CCCCO1 (stereo partly drawn)
[reply] inactive

[ask] Cool, now CCSc1nnc(CSc2nc(-c3ccccc3)c(-c3ccccc3)[nH]2)n1-c1ccccc1
[reply] inactive

[ask] Cool, now CC(=O)NC1CC2Oc3ccc(C)cc3C(C)(O2)C1O (stereo not drawn)
[reply] inactive

[ask] Cool, now CCOC(=O)C1Nc2ccc([N+](=O)[O-])cc2[C@H]2OCC[C@@H]12 (stereo partly drawn)
[reply] inactive

[ask] Cool, now COC(=O)NNc1c([N+](=O)[O-])cnn(-c2ccccc2)c1=O
[reply] inactive

[ask] Cool, now CCOC(=O)C(=C=C=C(c1ccccc1)c1ccccc1)C(=O)OCC
[reply] inactive

[ask] Cool, now COc1ccc(/C(Cl)=C(\C=O)c2ccc(Cl)c(Cl)c2)cc1
[reply] inactive

[ask] Cool, now CC(=O)CCC1(c2ccccc2)OC(=O)C(C#N)=C1c1ccccc1 (stereo not drawn)
[reply] inactive

[ask] Cool, now CC1=C[P+](Cc2ccccc2)(c2ccccc2)CC1 (stereo not drawn)
[reply] inactive

[ask] Cool, now COc1ccc(CC2NCCc3c2[nH]c2ccccc32)cc1 (stereo not drawn)
[reply] inactive

###

- System: SR
- EXPERIMENTAL_PROTOCOL: NCI tumour cell line growth inhibition, 48 h
Active and inactive are the calls of the source. Rule as the data show it: active = GI50 up to about 1.1 µM and inactive = higher.
REPORTED_ENDPOINT: GI50

Check out these entries, answers already filled in.
MOLECULE	GI50
Cc1c(N(C)C)ccc2c(=O)c3cccc(CC(=O)O)c3oc12	> 100 µM (inactive)
CC1CC(C(=O)OC2OC(COC3OC(CO)C(OC4OC(C)C(O)C(O)C4O)C(O)C3O)C(O)C(O)C2O)C2CCC3(C)C(=CCC4(C)C3CCC3C(C)(CO)C(O)C(O)CC34C)C2C1C (stereo not given)	17.9 µM (inactive)
N#Cc1ccsc1Nc1ccccc1[N+](=O)[O-]	> 100 µM (inactive)
OC(CBr)C(O)C(O)C(O)CBr (stereo not given)	> 100 µM (inactive)
NC(CSSCC(N)Cc1ccccc1)Cc1ccccc1 (stereo not given)	31 µM (inactive)
N/N=c1/nc2n(c3ncccc13)C=CNN2	> 100 µM (inactive)
COC(=O)c1cc(=O)nc2cc3cccccc3n12	> 100 µM (inactive)
COc1ccc2c(c1)C(=O)CC(C(N)=O)C2 (stereo not given)	> 100 µM (inactive)

From here, focus on the item given below.
[ask] Give its GI50 value. Item: CC(C)Cc1c(C#N)c(C#N)c(N)n1Cc1ccccc1
[reply] > 100 µM (inactive)

###

- Tested on: OVCAR-3
- EXPERIMENTAL_PROTOCOL: NCI tumour cell line growth inhibition, 48 h
Activity calls are given as the source filed them. Rule as the data show it: active = GI50 up to about 1.1 µM and inactive = higher.
Parameter call: string, one of Yes for active, No for inactive

COMPOUND	CLASS_ASSIGNMENT
CC(=O)O[C@H]1C(=O)[C@]2(C)[C@@H](OC(=O)OCCC(O)CO)C[C@H]3OC[C@@]3(OC(C)=O)[C@H]2[C@H](OC(=O)c2ccccc2)[C@]2(O)C[C@H](OC(=O)[C@H](O)[C@@H](NC(=O)c3ccccc3)c3ccccc3)C(C)=C1C2(C)C (stereo partly drawn)	Yes

[ask] Short answer needed: outcome of this test for O=C(O/N=C1/CCCC/C1=C\c1ccccc1)c1ccc(Cl)cc1 ?
[reply] No

###

- System: SNB-78
- EXPERIMENTAL_PROTOCOL: NCI tumour cell line growth inhibition, 48 h
Calls of active or inactive are those of the source. No stated cut-off is given here; in the data, active = GI50 up to about 1.1 µM and inactive = higher.
Parameter call: string, one of yes (active), no (inactive)

[ask] Short answer needed: outcome of this test for COc1ccc2c(c1)CCCN2CCCCCCCCCCN(CCC(C)C)CCC(C)C ?
[reply] no

[ask] Cool, now CC[C@@]1(O)CC(OC2CC(N3CCOCC3)C(O)C(C)O2)c2c(O)c3c(c(O)c2[C@H]1O)C(=O)c1cccc(O)c1C3=O (some centres not stated)
[reply] yes

###

- System: Hs-578T
- EXPERIMENTAL_PROTOCOL: NCI tumour cell line growth inhibition, 48 h
The source made the active and inactive calls. Cut-off read from the data, not from the text of the source: active = GI50 up to about 1.1 µM and inactive = higher.
REPORTED_ENDPOINT: GI50

Check out these entries, answers already filled in.
> print(dat)
                                   compound       value.reported
1  CC12NC(=C(C#N)C#N)C(C#N)=C3NC(N)=C(C#N)C(=C31)Oc1ccccc12 (stereo not drawn)   6.46 µM (inactive)
2  CC(=O)OCC12C(=O)C[C@@H](C)C3(CC(c4ccoc4)OC3=O)C1CCC(OC(C)=O)C21CO1 (stereo partly drawn)  > 100 µM (inactive)
3  C=C(C)c1cc(C(C)(C)C)cc(C(=C)C)c1S(C)(=O)=O  > 100 µM (inactive)

From here, focus on the item given below.
[ask] Give its GI50 value. Item: O=C1/C(=C/c2ccccc2)CCc2ccc([N+](=O)[O-])cc21
[reply] 37.4 µM (inactive)

###

- System: UO-31
- EXPERIMENTAL_PROTOCOL: NCI tumour cell line growth inhibition, 48 h
Active and inactive are the calls of the source. No stated cut-off is given here; in the data, active = GI50 up to about 1.1 µM and inactive = higher.
GI50 listing for selected molecules.

MOLECULE	VALUE_REPORTED
O=C(CCN1CCN2c3ccccc3CCC2C1)c1ccc(F)cc1 (stereo not drawn)	17.6 µM (inactive)
CCc1c(OC(C)=O)c2c(NC3OC(COC(C)=O)C(OC(C)=O)C(OC(C)=O)C3OC(C)=O)nc(OC)nc2oc1=O (stereo not drawn)	> 100 µM (inactive)
NS(=O)(=O)c1nnc(NC(=O)C23CC4CC(CC(C4)C2)C3)s1	> 100 µM (inactive)
CN(C)CCCNC(=O)c1cc(NC(=O)c2cc(NS(=O)(=O)c3ccc4c(c3)C(=O)c3ccccc3C4=O)cn2C)cn1C	> 100 µM (inactive)
CC(=O)Nc1ccc(NS(=O)(=O)c2ccc3nc(C)n(NS(=O)(=O)c4ccc(NC(C)=O)cc4)c(=O)c3c2)cc1	> 100 µM (inactive)

[ask] Give its GI50 value. Item: COc1cc(C2c3cc4c(cc3OC(Nc3ccccc3)C2C)OCO4)cc(OC)c1OC (stereo not drawn)
[reply] 2.09 µM (inactive)

[ask] Cool, now N#Cc1ccsc1Nc1ccccc1[N+](=O)[O-]
[reply] > 100 µM (inactive)

[ask] Cool, now CC1CC(NN)=Nc2ccccc2N1 (stereo not drawn)
[reply] > 100 µM (inactive)

[ask] Cool, now Cc1ccc(Nc2nc3c(s2)C(=O)c2ccccc2C3=O)cc1
[reply] 2.03 µM (inactive)

[ask] Cool, now O=[N+]([O-])c1nccn1COCCI
[reply] > 100 µM (inactive)

[ask] Cool, now COc1nc2c(c(=O)[nH]1)N=C(c1ccc(Cl)cc1)CC(c1ccccc1)N2 (stereo not drawn)
[reply] 29.6 µM (inactive)

[ask] Cool, now CCOC(=O)CNC(=O)C(C)NC(=O)C(NC(=O)CC(c1ncc[nH]1)c1ncc[nH]1)C(C)CC (stereo not drawn)
[reply] > 100 µM (inactive)

[ask] Cool, now CC1(C)OCN(c2ccc(N3CCOCC3)cc2)Cn2c1nc1ccccc12
[reply] > 100 µM (inactive)

[ask] Cool, now CCCCS(=O)(=O)Nc1ccc(Nc2c3ccccc3nc3ccccc23)c(OC)c1
[reply] 1.5 µM (inactive)
